Assay: NCI Yeast Anticancer Drug Screen. Data for the rad50 strain (AID 155);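 also: 0% = growth of vehicle-only cultures of the same strain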
Details: S. cerevisiae rad50 strain growth inhibition; at 50.0 µM (retest, dose inferred, filed as 5.0); hits give high values
This is part of a sample that, as a whole, favours compounds with a hit. Of some 79,000 tested, about 15% had one in any assay.
Assign a class from recorded growth inhibition; defined classes: bucket A: < 60%; bucket B: ≥ 60% and < 90%; bucket C: ≥ 90%

molecule	classAssignment
COc1cc(/C=C(/C)C[N+](=O)[O-])ccc1O	bucket C
O=S(=O)(O)c1cc(N=Nc2ccc(O)c(O)c2)ccc1/C=C/c1ccc(N=Nc2ccc(O)c(O)c2)cc1S(=O)(=O)O	bucket B
CC1CCC(C(C)C2C(O)CC3C4CC=C5CC(O)CCC5(C)C4CCC32C)NC1 (centres undefined)	bucket B
NNc1c(Cl)c(F)c(Cl)c(F)c1Cl	bucket A
O=c1oc2cc(N=Cc3ccc4c(c3)OCO4)ccc2c2ccccc12	bucket A
CCCCC(CC(=O)O)c1ccc(Cl)cc1 (centres undefined)	bucket A
Cn1c(N)c(N=Nc2ccc(S(N)(=O)=O)cc2)c(=O)n(C)c1=O	bucket A
Cn1cc(NC(=O)c2cc(NC(=O)CCCCCCCCCCC(=O)Nc3cc(C(=O)Nc4cc(C(=O)NCCC(=N)N)n(C)c4)n(C)c3)cn2C)cc1C(=O)NCCC(=N)N	bucket C
Cc1ccc(N2C(=O)C(C)SC23C(=O)Nc2ccc(Cl)cc23)cc1 (centres undefined)	bucket C
Cc1nc(-n2nc(-c3ccccc3)cc2-c2ccccc2)sc1C(/C=C\c1ccc([N+](=O)[O-])cc1)=N/NC(=S)NN	bucket B

---

Assay: NCI Yeast Anticancer Drug Screen. Data for the mec2-1 strain (AID 157)
Conditions: S. cerevisiae mec2-1 strain, at 5.0 µM (retest, dose inferred, filed as 0.5), hits give high values
The panel holds about 79,000 compounds, 15% with a hit somewhere; the sample as a whole holds those more often.
Listing of recorded growth inhibition by entry.

compound	readoutUnit	growth inhibition
CCCCc1c2c(nc3c1CCc1cc4cc5c(nc4nc1-3)-c1nc3c(c(CCCC)c1CC5)CCC/C3=N/OC)/C(=N\OC)CCC2	%	2
O=[N+]([O-])/C(C(Cl)=C(Cl)Cl)=C(/Sc1ccccc1)N1CCOCC1	%	2
CCC(c1ccc(O)cc1)C(CC)c1ccc(O)c(O)c1 (stereo unspecified)	%	12
N=C(N)SC1c2ccccc2-c2cc([N+](=O)[O-])ccc21 (stereo unspecified)	%	13
O=[N+]([O-])c1cc(Cl)c(Cl)cc1NS(=O)(=O)c1ccccc1	%	-8
S=C(N/N=C/c1ccccn1)Nc1ccccn1	%	-2

---

Test: NCI Yeast Anticancer Drug Screen. Data for the rad50 strain (AID 155);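 also: 0% = growth of vehicle-only cultures of the same strain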
Details: S. cerevisiae rad50 strain growth inhibition; at 5.0 µM (retest, dose inferred, filed as 0.5); hits give high values
This is part of a sample that, as a whole, favours compounds with a hit. Of some 79,000 tested, about 15% had one in any assay.

compound	growth inhibition / %
Cc1cc(Br)c(N2C3=C(CC4=C2CCCC4=O)C(=O)CCC3)c(Br)c1	17
CC([N+](=O)[O-])C1(O)C(=O)c2cccc3cccc1c23 (stereo unspecified)	-7
CN(C)C(=O)SC1=C(c2c(Cl)cccc2Cl)C(=O)c2ccccc21	41
O=S(=O)(Cl)c1ccc(Br)cc1	45
CC[n+]1c(/C=C/c2cc(C(=O)OC)n3c2sc2ccccc23)sc2ccccc21	43
CN1c2ccccc2C(C)(C)C12C=Cc1cc(O)ccc1O2 (stereo unspecified)	20
CNC(=N)c1ccc(NC(=N)c2ccc(NC(=O)c3ccc(C(=O)Nc4ccc(C(=N)Nc5ccc(C(=N)NC)cc5)cc4)cc3)cc2)cc1	74
Oc1ccc2ccc3ccccc3c2c1	5
Cc1cccc(Nc2c3c(nc4ccccc24)CCCCC3)c1	0
O=C(Nc1ccc(F)cc1)ON=C1CCCCC1	56
CCC1(C)CCC2(C)C(CCC3C4(C)CCCC32OC4=O)C1 (stereo unspecified)	16
